All values here come from patent US5859067A.

Molecular target: human erythrocyte plasma membrane Ca^2+ -ATPase (Homo sapiens)
Construct: Calmodulin-depleted erythrocyte membranes were prepared by continuous filtration through a hollow fibre; tissue New South Wales Red Cross Transfusion Service, Sydney; host or cells: human packed red blood cells (calmodulin-depleted erythrocyte membranes)
Sequence (P23634 1-1205 isoform P23634-6): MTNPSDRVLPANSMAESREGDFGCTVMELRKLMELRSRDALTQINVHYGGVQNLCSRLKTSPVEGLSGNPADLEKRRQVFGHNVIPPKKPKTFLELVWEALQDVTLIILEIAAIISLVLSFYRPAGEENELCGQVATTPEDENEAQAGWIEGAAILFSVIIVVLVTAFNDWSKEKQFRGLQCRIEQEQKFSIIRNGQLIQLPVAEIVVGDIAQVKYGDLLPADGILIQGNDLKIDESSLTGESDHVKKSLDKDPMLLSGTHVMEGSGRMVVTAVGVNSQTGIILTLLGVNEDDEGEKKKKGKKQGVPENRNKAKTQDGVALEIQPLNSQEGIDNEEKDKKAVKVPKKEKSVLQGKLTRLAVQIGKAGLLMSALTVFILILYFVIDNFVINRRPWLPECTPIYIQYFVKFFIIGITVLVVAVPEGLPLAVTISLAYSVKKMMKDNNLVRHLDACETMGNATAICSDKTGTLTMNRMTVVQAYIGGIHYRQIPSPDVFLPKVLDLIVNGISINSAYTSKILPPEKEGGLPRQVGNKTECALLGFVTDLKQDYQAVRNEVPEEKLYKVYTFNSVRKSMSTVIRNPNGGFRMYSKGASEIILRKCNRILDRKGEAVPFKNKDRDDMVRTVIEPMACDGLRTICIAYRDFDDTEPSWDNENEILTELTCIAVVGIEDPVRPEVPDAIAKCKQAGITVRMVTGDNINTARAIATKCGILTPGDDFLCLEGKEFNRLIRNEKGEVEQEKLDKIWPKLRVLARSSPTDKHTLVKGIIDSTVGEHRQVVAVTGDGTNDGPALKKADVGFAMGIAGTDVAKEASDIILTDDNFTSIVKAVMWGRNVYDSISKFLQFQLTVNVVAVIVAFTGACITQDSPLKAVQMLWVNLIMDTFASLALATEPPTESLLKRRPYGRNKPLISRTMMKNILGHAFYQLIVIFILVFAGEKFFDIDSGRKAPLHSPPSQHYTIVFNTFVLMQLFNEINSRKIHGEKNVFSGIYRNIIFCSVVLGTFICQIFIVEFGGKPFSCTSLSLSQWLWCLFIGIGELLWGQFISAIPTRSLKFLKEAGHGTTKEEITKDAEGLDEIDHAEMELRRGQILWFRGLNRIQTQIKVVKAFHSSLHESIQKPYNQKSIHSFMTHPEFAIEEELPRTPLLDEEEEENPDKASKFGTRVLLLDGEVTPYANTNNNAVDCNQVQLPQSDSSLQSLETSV
Sequence (P35613 140-385 partner limits assumed): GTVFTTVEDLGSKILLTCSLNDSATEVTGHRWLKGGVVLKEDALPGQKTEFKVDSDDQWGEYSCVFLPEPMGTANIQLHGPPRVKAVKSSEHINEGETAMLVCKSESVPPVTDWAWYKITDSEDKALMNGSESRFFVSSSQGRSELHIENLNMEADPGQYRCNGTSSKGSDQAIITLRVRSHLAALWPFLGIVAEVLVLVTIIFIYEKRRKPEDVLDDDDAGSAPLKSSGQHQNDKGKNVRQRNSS
Test: Ca^2+ -ATPase assay (microplate method), absence (-CaM) and presence (+CaM) of calmodulin (Table 1A)
Format: biochemical
Settings: IC50 (+CaM), presence of calmodulin (0.3 μM)
MEASURED_QUANTITY: IC50 (µM)
The answer is to be given in µM; state only the numeric part.

Find the recorded IC50 belonging to CCCCCCCCCc1cc(Br)ccc1O [4-bromo-6-nonylphenol] and report it.
55

Could you tell me which IC50 is on file for CCCCCCCCCc1cc([N+](=O)[O-])cc(Br)c1O [2-bromo-4-nitro-6-nonylphenol] ?
70

# IC50 lookup, item CCCCCCCCCc1ccc(C)cc1O [3-methyl-6-nonylphenol]
60

Fill blank: measured IC50 of the compound CCCCCCCCCc1cc(Br)cc([N+](=O)[O-])c1O [4-bromo-2-nitro-6-nonylphenol] is ____.
65.5

What value of IC50 has been recorded for this entry: CCCCCCCCCc1cc(C)ccc1O [4-methyl-6-nonylphenol]
75

Look up IC50 for this compound: CCCCCCCCCc1ccccc1O [2-nonylphenol]
40

Fill in: IC50 of CCCCCCCCCc1cc([N+](=O)[O-])ccc1O [4-nitro-6-nonylphenol] is ___
70
